Values compiled from paper PMC9587990.

# target or test system: PS1-complex (WT PS1-containing γ-secretase) (Homo sapiens)
# Construct: made in house; host or cells: mammalian cells (HEK293F is stated for the cryo-EM samples)
# assay text: in vitro cleavage assay, Aβ40 production by AlphaLISA
# Format: biochemical
# reported conditions: PS1-complex WT, mean ± SD, n=3
assay readout: IC50 (nM)
Lab book: enter the figure in nM, no units written.

Give IC50 for this entry on PS1-complex (WT PS1-containing γ-secretase) (Homo sapiens): O=S(=O)(NC1CCC(c2cc(F)ccc2F)(S(=O)(=O)c2ccc(Cl)cc2)CC1)C(F)(F)F (stereo not shown)
33

====

# target or test system: PS1 L282I γ-secretase complex (Homo sapiens, UniProt P49768, L282I)
# assay text: in vitro cleavage assay, Aβ40 production by AlphaLISA
assay readout: IC50 (µM)
Lab book: enter the figure in µM, no units written.

Determine from records and report IC50 for O=S(=O)(NC1CCC(c2cc(F)ccc2F)(S(=O)(=O)c2ccc(Cl)cc2)CC1)C(F)(F)F (stereo not shown) [MRK-560]
0.09
